- Measured Target: T1, mouse CD276 protein (mouse, UniProt Q8VE98 29-316)
- T1 construct: whole, on cells; also called mCD276; CHO-S-mCD276
- T1 sequence (looked up): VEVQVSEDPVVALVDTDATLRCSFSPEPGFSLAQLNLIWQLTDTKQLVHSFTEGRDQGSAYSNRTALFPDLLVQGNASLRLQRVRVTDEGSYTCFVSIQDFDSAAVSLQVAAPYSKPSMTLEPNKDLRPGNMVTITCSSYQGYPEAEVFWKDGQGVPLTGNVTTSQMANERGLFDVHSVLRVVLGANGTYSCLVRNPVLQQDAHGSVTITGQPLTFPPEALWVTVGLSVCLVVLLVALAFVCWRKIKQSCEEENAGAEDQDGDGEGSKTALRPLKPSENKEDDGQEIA
- Test Description: FACS on CHO-S-mCD276 cells
Observation Type: FACS MFI
Lab note: write the figure by itself, no unit.

[[record]]
binder = "9-G2-H6-E4 (antibody, V domains shown, mouse monoclonal antibody (hybridoma)) VH: EVQLQQSGPDLVKPGASVKISCKASGYSFTGYFMNWVKQRHGKSLEWIGYINPNNGDTIYNQKFKGKATLTVDKSSSTAHMELLSLTSEDSAVYYCGRGGLPFGALDYWGQGTSVTVSS VL: DIVMSQSPSSLAVSVGEKVNMSCKSSQSLLYSRNQKNYLAWNQQKPGQSPKLLIYWASARESGVPDRFTGSGSGTDFTLTISSVKAEDLAAYYCQQYHSYPYTFGGGTKLELK"
observation_type = "FACS MFI"
value_observed = 27600

[[record]]
binder = "9-B9-H11-G7 (antibody, V domains shown, mouse monoclonal antibody (hybridoma)) VH: DVQLQESGPGLVKPSQSLSLTCSVTGYSITSGYYWNWIRQFPGNKLEWMVYISYDGTNNYNPSLKNRISITRDTSKNQFFLKLNSVTTEDTATYYCARGDSNSYYFDYWGQGTTLTVSS VL: QAVVTQESALTTSPGGTVILTCRSSTGAVTTSNYANWVQEKPDHLFTGLIGGTSNRAPGVPVRFSGSLIGDKAALTITGAQTEDDAMYFCALWYRTHYVFGGGTKVTVL"
observation_type = "FACS MFI"
value_observed = 1360


Request: Query (binder): 7-E1-F8-F6 (antibody, V domains shown, mouse monoclonal antibody (hybridoma)) VH: QVQLQQSGPELVKPGASVQMSCKASGYTFTDYVISWVNQRTGQGLEWIGEIYPRSGNTYYNEKFKGKATLTADKSSNTAYMQLSSLTSEDSAVYFCARFDIAYSFDYWGQGTTLTVSS VL: DVVMTQTPLSLPVSLGDQASISCRSTQSLVHSNGVTYLHWYLQKPGQSPKLLIYKVSNRFSGVPDRFSGSGSGTDFTLKISRVEAEDLGVYFCSQGTHVPWTFGGGTKLEIK ; field requested: FACS MFI
Response: 1310

Cited source: patent US20240400689A1
